This section presents binders with their documented IL-2, % of BMS, at 6.666666667 ug/mL values.
measurementTarget: human LAG3 expressed on cells (human) (UniProt P18627)
Sequence (P18627 23-525): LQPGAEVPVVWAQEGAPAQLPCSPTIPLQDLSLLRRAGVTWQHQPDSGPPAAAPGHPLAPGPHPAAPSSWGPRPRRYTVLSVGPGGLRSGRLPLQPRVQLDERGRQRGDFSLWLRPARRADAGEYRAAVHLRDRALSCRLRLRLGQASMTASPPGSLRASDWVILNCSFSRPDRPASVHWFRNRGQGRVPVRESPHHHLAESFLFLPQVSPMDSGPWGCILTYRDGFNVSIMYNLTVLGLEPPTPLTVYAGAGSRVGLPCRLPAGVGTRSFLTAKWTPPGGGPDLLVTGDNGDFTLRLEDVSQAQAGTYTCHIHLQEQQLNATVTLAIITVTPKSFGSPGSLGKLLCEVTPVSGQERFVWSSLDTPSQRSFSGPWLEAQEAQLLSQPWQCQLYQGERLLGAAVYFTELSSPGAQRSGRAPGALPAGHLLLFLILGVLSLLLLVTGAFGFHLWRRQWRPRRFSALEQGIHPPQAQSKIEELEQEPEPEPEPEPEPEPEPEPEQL
protocolText: cell-based or functional assay
Numbers only here, please. The scale is %.

// known answers, use as guide
binder	IL-2, % of BMS, at 6.666666667 ug/mL (%)
sdAb fusion 25-2015-1 (Fc fusion, not shown: a dimerising Fc or GST) QLQLVESGGGLVQAGGSLRLSCAASGSIESFSFMGWYRQAPGKQRELVAGFTGAASLSFSTYTDAVKGRFTISRDNAKNTVYLQMNSLKPEDTAVYFCNVDPWSQSWPGRYWGQGTQVTVSSGGGGSQLQLVESGGGLAQTGGSLRLSCAAAGFTFDDTATGWFRQAPGKNREGVACISSSDGRIHYIDSAKGRFTISKDNAKKTVYLQMDSLKPEDTAVYYCAAARKGSTDCQGAIWGSWGQGTQVIVSSEPKSCDKTHTCPPCPAPELLG	112
sdAb fusion 25-17-2 (Fc fusion, not shown: a dimerising Fc or GST) QLQLVESGGGLVQAGGSLRLSCAASGSIESFSFMGWYRQAPGKQRELVAGFTGAASLSFSTYTDAVKGRFTISRDNAKNTVYLQMNSLKPEDTAVYFCNVDPWSQSWPGRYWGQGTQVTVSSGGGGSGGGGSQLQLVESGGGLVQPGGSLRLSCAASGLTLDGYAIGWFRQAPGKEREGLACISGSDGSTHYLDSVKGRFTISRDNGKNTMALQMNSLQFGDTAIYYCAARRGSCSGSWTYWGQGTQVTVSSEPKSCDKTHTCPPCPAPELLG	85.1
sdAb fusion 25-17-1 (Fc fusion, not shown: a dimerising Fc or GST) QLQLVESGGGLVQAGGSLRLSCAASGSIESFSFMGWYRQAPGKQRELVAGFTGAASLSFSTYTDAVKGRFTISRDNAKNTVYLQMNSLKPEDTAVYFCNVDPWSQSWPGRYWGQGTQVTVSSGGGGSQLQLVESGGGLVQPGGSLRLSCAASGLTLDGYAIGWFRQAPGKEREGLACISGSDGSTHYLDSVKGRFTISRDNGKNTMALQMNSLQFGDTAIYYCAARRGSCSGSWTYWGQGTQVTVSS	89.2
sdAb fusion 25-27-2 (Fc fusion, not shown: a dimerising Fc or GST) QLQLVESGGGLVQAGGSLRLSCAASGSIESFSFMGWYRQAPGKQRELVAGFTGAASLSFSTYTDAVKGRFTISRDNAKNTVYLQMNSLKPEDTAVYFCNVDPWSQSWPGRYWGQGTQVTVSSGGGGSGGGGSQVQLVESGGGLVQPGGSLRLSCAASGFTLDYYAIGWFRQAPGKEREGVSCIRSSDGSTYYADSVKGRFTISSDNTKNTVYLQMNSLKPEDTAVYYCATDRYSDCRGPYENWGQGTQVTVSSEPKSCDKTHTCPPCPAPELLG	123

**Query** Return reported IL-2, % of BMS, at 6.666666667 ug/mL; argument: sdAb fusion 25-2015-3 (Fc fusion, not shown: a dimerising Fc or GST) QLQLVESGGGLVQAGGSLRLSCAASGSIESFSFMGWYRQAPGKQRELVAGFTGAASLSFSTYTDAVKGRFTISRDNAKNTVYLQMNSLKPEDTAVYFCNVDPWSQSWPGRYWGQGTQVTVSSGGGGSGGGGSGGGGSQLQLVESGGGLAQTGGSLRLSCAAAGFTFDDTATGWFRQAPGKNREGVACISSSDGRIHYIDSAKGRFTISKDNAKKTVYLQMDSLKPEDTAVYYCAAARKGSTDCQGAIWGSWGQGTQVIVSSEPKSCDKTHTCPPCPAPELLG
**Result** 112
